# Measured Target: Beta-2 adrenergic receptor (Bos taurus) (UniProt Q28044)
# Sequence (Q28044 whole entry, looked up): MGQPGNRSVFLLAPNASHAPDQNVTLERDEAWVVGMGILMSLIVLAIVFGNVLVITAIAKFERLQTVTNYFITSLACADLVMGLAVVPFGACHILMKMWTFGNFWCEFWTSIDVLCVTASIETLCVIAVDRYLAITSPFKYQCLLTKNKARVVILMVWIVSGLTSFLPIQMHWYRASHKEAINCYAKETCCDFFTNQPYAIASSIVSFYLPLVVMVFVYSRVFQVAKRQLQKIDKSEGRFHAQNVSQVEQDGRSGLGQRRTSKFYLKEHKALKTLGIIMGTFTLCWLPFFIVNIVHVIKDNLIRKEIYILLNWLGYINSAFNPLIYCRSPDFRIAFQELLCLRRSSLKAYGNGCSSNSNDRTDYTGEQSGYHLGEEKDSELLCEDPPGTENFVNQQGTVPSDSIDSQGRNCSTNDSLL
# Measurement Protocol: Concentration required for maximal (95-100%) beta-2 adrenergic receptor occupancy
// classify: if (Concentration < 30 µM) class 1 else class 0

Please let me know if CC(C)(C)NCC(O)c1cc(Cl)c(O)c(Cl)c1 (stereo not drawn) shows Concentration below 30 µM. class 0

Please state whether Concentration is below 30 µM for CC(C)(C)NCC(O)c1ccccc1Cl (stereo not drawn) class 1

Input CC(C)(C)NCC(O)c1cc(Cl)c(N)c(Cl)c1 (stereo not drawn) ; condition: Concentration strictly below 30 µM. Does it hold? class 1

Next:
Just wondering, is Concentration of CC(C)(C)NCC(O)c1ccc(O)cc1 (stereo not drawn) below 30 µM? class 0

Lab log: compare recorded Concentration with 30 µM; is it strictly lower for CC(C)(C)NCC(O)c1ccccc1 (stereo not drawn) ? class 0

These measurements were taken from ChEMBL document CHEMBL1123159.
